B1: H2-Kb / Ed46 (parent complex)
chain 1: AQSVTQPDARVTVSEGASLQLRCKYSYFGTPYLFWYVQYPRQGLQLLLKYYPGDPVVQGVNGFEAEFSKSNSSFHLRKASVHWSDWAVYFCAVGRTGGYKVVFGSGTRLLVSP
chain 2: DSGVVQSPRHIIKEKGGRSVLTCIPISGHSNVVWYQQTLGKELKFLIQHYEKVERDKGFLPSRFSVQQFDDYHSEMNMSALELEDSAMYFCASSPRHSDYTFGSGTRLLVI
chain 3: not shown
chain 4: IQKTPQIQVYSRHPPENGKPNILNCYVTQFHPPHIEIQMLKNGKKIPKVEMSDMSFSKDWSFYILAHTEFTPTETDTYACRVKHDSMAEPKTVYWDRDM
chain 5: SIINFEKL

# Variants of: B1
# PROTOCOL_TEXT: % of reporter cells activated (NFAT-GFP), raw; also: test concentration or dose not given here
ENDPOINT_LABEL: ratio to parent

For orientation, consider the following solved cases.
>  <RESIDUE_CHANGE>
chain 5 S1D

>  <ENDPOINT_LABEL>
ratio to parent

>  <TEST_VALUE>
0.675

$$$$
>  <RESIDUE_CHANGE>
chain 5 I3Y

>  <ENDPOINT_LABEL>
ratio to parent

>  <TEST_VALUE>
1.08

$$$$
>  <RESIDUE_CHANGE>
chain 5 I2A

>  <ENDPOINT_LABEL>
ratio to parent

>  <TEST_VALUE>
1.4

$$$$
>  <RESIDUE_CHANGE>
chain 5 S1E

>  <ENDPOINT_LABEL>
ratio to parent

>  <TEST_VALUE>
0.174

$$$$
>  <RESIDUE_CHANGE>
chain 5 L8H

>  <ENDPOINT_LABEL>
ratio to parent

>  <TEST_VALUE>
0.912

$$$$

A. chain 5 E6L
B. chain 5 F5S
Ask: // returns A or B , whichever has the lower ratio to parent Indicate which entry you chose by stating its label.
Reply: A
(A: 0.16, B: 1.32)

a. chain 5 F5H
b. chain 5 I3M
c. chain 5 S1A
d. chain 5 N4H
e. chain 5 N4T
Ask: Arrange these 5 variants in increasing order of ratio to parent. Put the labels in the requested order and write them down.
Reply: e, d, b, c, a
(e: 0.00841, d: 0.036, b: 0.446, c: 0.746, a: 1.23)

I. chain 5 F5Q
II. chain 5 K7C
Ask: Endpoint returns whichever of I and II has the numerically higher ratio to parent. Indicate which entry you chose by stating its label.
Reply: I
(I: 0.757, II: 0.0252)

I. chain 5 I2Q
II. chain 5 I3N
III. chain 5 S1V
Ask: Arrange these 3 variants in increasing order of ratio to parent. Put the labels in the requested order and write them down.
Reply: III, II, I
(III: 0.0256, II: 0.34, I: 0.775)

A. chain 5 L8E
B. chain 5 I2M
Ask: Endpoint returns whichever of A and B has the numerically higher ratio to parent. Indicate which entry you chose by stating its label.
Reply: B

a. chain 5 N4S
b. chain 5 K7H
Ask: Endpoint returns whichever of a and b has the numerically higher ratio to parent. Indicate which entry you chose by stating its label.
Reply: b
(b: 0.74, a: 0.00601)

a. chain 5 S1R
b. chain 5 N4Q
c. chain 5 N4P
d. chain 5 E6G
e. chain 5 N4L
Ask: Rank by ratio to parent (largest to smallest). Put the labels in the requested order and write them down.
Reply: d, a, e, c, b

I. chain 5 E6V
II. chain 5 S1M
Ask: Endpoint returns whichever of I and II has the numerically higher ratio to parent. Indicate which entry you chose by stating its label.
Reply: II
(II: 0.235, I: 0.0112)
